Reference source for all entries: PubChem BioAssay (NCI)

tested on: HOP-62 NSCLC; test: NCI-60 one-dose screen, 48 h (100 = growth as untreated, 0 = no growth, -100 = all killed); conditions: 10 µM
The panel holds about 83,000 compounds, 20% with a hit somewhere; the sample as a whole holds those more often.
// reported growth for each item listed
READOUT NAME: growth (%)

MOLECULE	READOUT NAME	ASSAY RESULT
O=C(CCC(C(=O)c1ccccc1)c1ccccc1)c1ccccc1 (stereo not drawn)	growth	76.8
CC(C)N(CCOc1cccc(-c2nc3sccn3c2-c2ccnc(S(C)(=O)=O)n2)c1)C(C)C	growth	103
CCOC(=O)C1=CSC2=NC3=C(CCC/C3=C\c3cc(OC)c(OC)c(OC)c3)C(c3cc(OC)c(OC)c(OC)c3)N12 (stereo not drawn)	growth	74.5
S=C1N(c2ccccc2)CN(C2CCCCC2)CN1c1ccccc1	growth	99.9
CN(C)CCCOc1ccc(NC2=C(Cl)C(=O)C(Nc3ccc(OCCCN(C)C)cc3)=C(Cl)C2=O)cc1	growth	-98.2
CCn1c(SCCc2ccccc2)nnc1-c1nn(-c2ccc(Cl)cc2Cl)c(-c2ccc(Cl)cc2)c1C	growth	101
CN(C)CCN(Cc1ccccc1)c1ccc2ccccc2n1	growth	88.4
CCOC(=O)c1cc(C(=O)c2ccc(OC)c(OC)c2)n2c1ccc1ccc3cccnc3c12	growth	29.8
COc1ccc(Cl)cc1Nc1nc(C(F)(F)F)ccc1C(=O)N/N=C/c1ccc(Cl)cc1	growth	44.8
CCC(=O)OC1CCC2C3CCC(=O)OC3C(C)(CCC(=O)O)CC12C (stereo not drawn)	growth	38.5
COc1cc2cc(Oc3ccc(NC(=O)c4cccc(C(F)(F)F)c4)cc3)c(C)nc2cc1OC	growth	87.1
Cc1ccc(NCCN(C)CC(C)O)c2c(=O)c3ccc(Cl)cc3sc12 (stereo not drawn)	growth	87.1
Cc1ccc(C(C)C)c(O)c1NC(=O)OC(C)C	growth	91.6

###

tested on: COLO 205 colon; assay: NCI-60 one-dose screen, 48 h (100 = growth as untreated, 0 = no growth, -100 = all killed); conditions: 10 µM
The panel holds about 83,000 compounds, 20% with a hit somewhere; the sample as a whole holds those more often.
READOUT NAME: growth (%)

COMPOUND	ASSAY SYSTEM	ASSAY RESULT
CSc1ccc(-c2cc(-c3ccc(NC(=O)CCCN4CCCC4)cc3)nc(-c3ccc(NC(=O)CCCN4CCCC4)cc3)c2)cc1	COLO 205 colon	82.6
CCOc1ccccc1/C=N/N1CCCCCC1	COLO 205 colon	108
O=C(CI)OCC(COC(=O)CI)OC(=O)CI	COLO 205 colon	33.2
CC(=O)N[C@H](C(=O)N[C@@H](CCCNC(=N)N)C(=O)N[C@@H](CCCCN)C(=O)N[C@@H](CCCNC(=N)N)C(=O)N[C@]1(C)CCCCCC/C=C\CCC[C@@](C)(C(=O)N[C@@H](CCCNC(=N)N)C(=O)N[C@@H](CCC(=O)O)C(=O)N[C@@H](CC(C)C)C(=O)N[C@H](C(=O)N[C@@H](CCC(=O)O)C(N)=O)C(C)C)NC(=O)[C@H](CCC(N)=O)NC(=O)[C@H](CC(C)C)NC(=O)[C@H](CC(C)C)NC(=O)[C@H](CCCNC(=N)N)NC(=O)[C@H](CCCNC(=N)N)NC(=O)[C@H](CC(C)C)NC1=O)C(C)C	COLO 205 colon	-29.5
C=CCn1c(SCC(=O)Nc2ccc(C(=O)/C=C/c3ccc(Cl)cc3)cc2)nnc1-c1cc(-c2ccccc2)nc2ccccc12	COLO 205 colon	99.5
C#CC(C)(O)[C@@H]1C[C@H](CC(=O)O)C1(C)C (stereo partly specified)	COLO 205 colon	122
